# Tm per record follows
- procedureSummary: melting temperature; fluorescence melt of hairpins on a sequencing array, two-state fit, raised by 9.35 °C to match UV melts
- conditionContext: sodium 0.088 M
Dear colleague, please return just the value in °C, with no unit written.

Here is how some sequences turned out for Tm.
residuecodes="GCGTTTGGAAACAAGCGC (((.(((....))).)))" measurename=Tm unitlabel=°C observedvalue=54.6
residuecodes="CGGTATCGGAAACGACCG (((..(((....))))))" measurename=Tm unitlabel=°C observedvalue=36.3
residuecodes="GTAAGCGAAAGCTCTAC ((((((....))).)))" measurename=Tm unitlabel=°C observedvalue=32.2
residuecodes="GGGTCTGGAAACAGGCTC (.(.(((....))).).)" measurename=Tm unitlabel=°C observedvalue=39.9

Respond only with Tm recorded for GCCTACGAAAGTATTGGC ((((((....)))..))) 43.4

Tell me its Tm given CGCATACGGAAACGTGCG (((..(((....)))))) as the entry. 48.9

Indicate its recorded Tm; the sequence in question is GATCAAAAGTTTGATC ((((((....)))))) 42.4

Determine from records and report Tm for GTAGTGGAAACACTAC ((((((....)))))) 53.4

For the sequence GATCGCGGAAACGCGGTC ((.((((....)))).)) , give its reported Tm. 62.8

Give a short answer stating reported Tm for GGTAATGGAAACATTGCC ((.((((....)))).)) . 46.7

Please supply the value of reported Tm for the item GTTCAGGGAAACCTGGAC ((.((((....)))).)) 48.9

Kindly indicate its recorded Tm. Item: GATCCTGGAAACGGGATC (((((.(....).))))) 50.9

* * *

- procedureSummary: melting temperature; fluorescence melt of hairpins on a sequencing array, two-state fit, raised by 9.35 °C to match UV melts
- conditionContext: sodium 0.088 M
Note to self: use 1 only for Tm readings below 60 °C; a reading exactly at 60 °C still gets -1.

Does the reported Tm of GCCCTCCGAAAGGATGGC (((.(((....))).))) stay below 60 °C? 1

Item GATCAGTCCGCTGATC ((((((....)))))) : Tm beneath 60 °C, strictly? 1

Find out if reported Tm for GGCTGCGGAAACGCAACC ((.((((....)))).)) is less than 60 °C 1

Dear colleague, could you confirm whether Tm of GAAGGGAAACCTTC (((((....))))) falls below 60 °C? Thanks. 1

Lab note: confirm whether the reported Tm for this sequence is below 60 °C, equality not counting. sequence: GATCGGTGTGCCGATC ((((((....)))))) -1

* * *

Recorded Tm, one value per entry.
- procedureSummary: melting temperature; fluorescence melt of hairpins on a sequencing array, two-state fit, raised by 9.35 °C to match UV melts
- conditionContext: sodium 0.088 M
Respond numerically; units are °C and should not be typed.

Some solved cases for reference:
residuecodes="GCAATGCGAAAGCGTGGC ((.(.((....)).).))" unitlabel=°C observedvalue=56.6
residuecodes="GCATAGAAATATGC (((((....)))))" unitlabel=°C observedvalue=43.3
residuecodes="GCACGTACGAAAGTATGC (((..(((....))))))" unitlabel=°C observedvalue=31.3
residuecodes="GCTGAGCGAAAGCCGAGC (((..((....))..)))" unitlabel=°C observedvalue=48.7
residuecodes="GGTCCCGAAAGGGGCACC ((((((....)))..)))" unitlabel=°C observedvalue=50.7

Give the reported Tm for this sequence. GGCCTCGAAAGAGGAGCC ((((((....)))..))) 47.2

Given GCAGTTCCGAAAGGATGC (((..(((....)))))) , respond with its Tm. 36.7

Respond only with Tm recorded for GGTTTGGGAAACCGAATC (.((.((....)).)).) 35.3

In one line, give reported Tm of the entry GCCAGGCGAAAGCGCGGC (((..((....))..))) . 59.6

Consider the sequence GAGAAGACGAAAGTCCTC (((..(((....)))))) and give its recorded Tm. 31.4

Complete the entry with Tm for CGTGCGGAAACGCCAACG ((((((....)))..))) 39.4

For the sequence GCAGGTCGAAAGACATGC (((.(((....))).))) , report Tm. 64.2

Data provenance is the array DNA melting data of Ke et al. (doi:10.1101/2024.01.08.574731).
